Measured values drawn from ChEMBL document CHEMBL1649460 for this set.

system: Escherichia coli; test: Antimicrobial activity against Escherichia coli J53 by agar dilution method; type: functional
Below, each entry is listed with its recorded MIC.
property: MIC (µg/mL)

INSERT INTO results (compound, numeric_result) VALUES
  ('CO[C@@]1(NC(=O)Cc2cccs2)C(=O)N2C(C(=O)O)=C(COC(N)=O)CS[C@@H]21 [CEFOXITIN]', 4),
  ('CC1(C)S[C@@H]2[C@H](NC(=O)[C@H](N)c3ccc(O)cc3)C(=O)N2[C@H]1C(=O)O [AMOXICILLIN]', 2),
  ('C[C@@H](O)[C@H]1C(=O)N2C(C(=O)O)=C(S[C@@H]3CN[C@H](C(=O)Nc4cccc(C(=O)O)c4)C3)[C@H](C)[C@H]12 [ERTAPENEM]', 0.03),
  ('CC(C)(O/N=C(\C(=O)N[C@@H]1C(=O)N2C(C(=O)[O-])=C(C[n+]3ccccc3)CS[C@H]12)c1csc(N)n1)C(=O)O [CEFTAZIDIME]', 0.06),
  ('C[C@@H](O)[C@H]1C(=O)N2C(C(=O)O)=C(S[C@@H]3CN[C@H](C(=O)N(C)C)C3)[C@H](C)[C@H]12 [MEROPENEM]', 0.03);
